tested on: K562 cells; assay: Cell viability, Cell Titer Glo 2.0 assay, K562; conditions: 72 hours
experimental_endpoint: Effect on Cell Viability, K562

Would you please look over these solved cases?
Query: I would be grateful if you could share the reported Effect on Cell Viability, K562 for COc1nc(-c2cc3cn(C)nc3c(F)c2O)nc2ncc(N3C[C@@H](C)N[C@@H](C)C3)cc12 [Compound 218] .
Result: A (<100 nM)

Query: I would be grateful if you could share the reported Effect on Cell Viability, K562 for Cc1c(O)c(-c2ccc3nc(N4CCNCC4)cnc3n2)cc2cn(C)nc12 [Compound 197] .
Result: B (100-1000 nM)

Query: I would be grateful if you could share the reported Effect on Cell Viability, K562 for CN[C@@H]1CCN(c2cnc3nc(-c4cc5cn(C)nc5c(F)c4O)cc(Cl)c3c2)C1 [Compound 271] .
Result: A (<100 nM)

Query: I would be grateful if you could share the reported Effect on Cell Viability, K562 for Cn1cc2cc(-c3cnc4cc(N5CCC(NC6CC6)C5)ccc4n3)c(O)c(F)c2n1 (stereo not shown) [Compound 175] .
Result: A (<100 nM)

Query: I would be grateful if you could share the reported Effect on Cell Viability, K562 for CN(C)C1CCN(c2cnc3nc(-c4cc5cn(C)nc5cc4O)ccc3c2)CC1 [Compound 316] .
Result: B (100-1000 nM)

Query: I would be grateful if you could share the reported Effect on Cell Viability, K562 for Cn1cc2cc(-c3ccc4cc(N5CC[C@H](NCC6CC6)C5)cnc4n3)c(O)cc2n1 [Compound 314] .
Result: B (100-1000 nM)

Query: I would be grateful if you could share the reported Effect on Cell Viability, K562 for Cc1c(O)c(-c2cc(Cl)c3cc(N4C[C@@H]5CCCN(C)[C@@H]5C4)cnc3n2)cc2cn(C)nc12 [Compound 375] .
Result: B (100-1000 nM)

Query: I would be grateful if you could share the reported Effect on Cell Viability, K562 for CNC1CCN(c2cnc3nc(-c4cc5cn(C)nc5c(C)c4O)ncc3c2)C1 (stereo not shown) [Compound 104] .
Result: A (<100 nM)

Query: I would be grateful if you could share the reported Effect on Cell Viability, K562 for Cc1cn2nc(-c3cc(Cl)c4cc(N5C[C@H](C)N[C@@H](C)C5)cnc4n3)cc(C)c2n1 [Compound 336] .
Result: B (100-1000 nM)

Query: I would be grateful if you could share the reported Effect on Cell Viability, K562 for Cc1c(O)c(-c2ccc3c(Cl)c(N4C[C@@H](C)N[C@@H](C)C4)cnc3n2)cc2cn(C)nc12 [Compound 390] .
Result: A (<100 nM)

Next, consider the following compound.
Query: I would be grateful if you could share the reported Effect on Cell Viability, K562 for Cc1c(O)c(-c2cc(C3CC3)c3cc(N4C[C@H](C)N[C@@H](C)C4)cnc3n2)cc2cn(C)nc12 [Compound 377] .
Result: B (100-1000 nM)

---

Measured IC50 of individual entries
test system: MYB mRNA; experiment: Splicing RT-qPCR assay, MYB canonical (CJ) and alternative (AJ) junction mRNA; assay type: cell-based, human; conditions: Homo sapiens, canonical junction mRNA, qPCR panel; read-out: MYB CJ (decrease in CJ mRNA levels, IC50)

Query: I would be grateful if you could share the reported IC50 for "Cn1cc2cc(-c3ccc4cc(N5CC[C@@H](NCC6CC6)C5)cnc4n3)c(O)cc2n1" .
Result: 100 to 1000 nM

---

test system: MYB mRNA; test: Splicing RT-qPCR assay, MYB canonical (CJ) and alternative (AJ) junction mRNA; format: cell-based, human; details: Homo sapiens; canonical junction mRNA, RT-qPCR, A673 or K562 cells, 24 hours treatment; read-out: MYB CJ (IC50, decrease in CJ mRNA)
Counter-ions that a name gives are not always drawn.
experimental_endpoint: IC50

Would you please look over these solved cases?
Query: I would be grateful if you could share the reported IC50 for "C[C@@H]1CN(c2cnc3nc(-c4cc5cn(C)nc5cc4O)ccc3c2)C[C@H](C)N1" .
Result: 100 to 1000 nM

Query: I would be grateful if you could share the reported IC50 for "C[C@@H]1CN(c2cnc3nc(-c4cc(F)c5nn(C)cc5c4)cc(Cl)c3c2)CC2(CC2)N1" .
Result: 100 to 1000 nM

Query: I would be grateful if you could share the reported IC50 for "C[C@H]1CN(c2cnc3nc(-c4cc5cn(C)nc5cc4O)cc(Cl)c3c2)C[C@H](C)N1" .
Result: < 100 nM

Query: I would be grateful if you could share the reported IC50 for "C[C@@H]1CN(c2cnc3nc(-c4cc(F)c5nn(C)cc5c4)cc(Cl)c3c2)CCN1" .
Result: < 100 nM

Query: I would be grateful if you could share the reported IC50 for "Cn1cc2cc(-c3ccc4cc(N5CC[C@@H](NCC6CC6)C5)cnc4n3)c(O)cc2n1" .
Result: 100 to 1000 nM

---
Query: I would be grateful if you could share the reported IC50 for C[C@@H]1CN(c2cnc3nc(-c4cc5cn(C)nc5cc4O)cc(C4CC4)c3c2)C[C@H](C)N1 [Compound 364, hydrochloride] .
Result: < 100 nM

Query: I would be grateful if you could share the reported IC50 for "Cc1cn2nc(-c3cnc4nc(C5CCNCC5)ccc4c3)cc(C)c2n1" .
Result: 1000 to 10000 nM

Query: I would be grateful if you could share the reported IC50 for "Cc1c(O)c(-c2cc(Cl)c3cc(N4CCNC5(CC5)C4)cnc3n2)cc2cn(C)nc12" .
Result: < 100 nM

Query: I would be grateful if you could share the reported IC50 for "Cc1cn2cc(-c3cc(Cl)c4cc(N5C[C@H](C)NC6(CC6)C5)cnc4n3)cc(F)c2n1" .
Result: 100 to 1000 nM

Query: I would be grateful if you could share the reported IC50 for CN[C@@H]1CCN(c2cnc3nc(-c4cc5cn(C)nc5c(C)c4O)cc(Cl)c3c2)C1 [Compound 286, hydrochloride] .
Result: < 100 nM

Query: I would be grateful if you could share the reported IC50 for "C[C@@H]1CN(c2cnc3nc(-c4cc(F)c5nn(C)cc5c4)ccc3c2Cl)C[C@H](C)N1" .
Result: 100 to 1000 nM

Query: I would be grateful if you could share the reported IC50 for "Cn1cc2cc(-c3cnc4cc(C5CCNCC5)cc(F)c4n3)c(O)c(F)c2n1" .
Result: < 100 nM

Query: I would be grateful if you could share the reported IC50 for "Cc1c(O)c(-c2ccc3nc(N4C[C@@H](C)N[C@@H](C)C4)cnc3n2)cc2cn(C)nc12" .
Result: 100 to 1000 nM

Query: I would be grateful if you could share the reported IC50 for "C[C@@H]1CN(c2cnc3nc(-c4cc5cn(C)nc5cc4O)cc(Cl)c3c2)CC2(CC2)N1" .
Result: 100 to 1000 nM

Query: I would be grateful if you could share the reported IC50 for "Cn1cc2cc(-c3cc(Cl)c4cc(N5CCNCC5)cnc4n3)cc(F)c2n1" .
Result: < 100 nM

Query: I would be grateful if you could share the reported IC50 for "C[C@H]1CN(c2cnc3nc(-c4cc(F)c5nn(C)cc5c4)ccc3c2)CCN1" .
Result: 100 to 1000 nM

---

Measured pIC50 of individual entries
system: MYB mRNA; test: Splicing RT-qPCR assay, MYB canonical (CJ) and alternative (AJ) junction mRNA; assay type: cell-based, human; conditions: Homo sapiens, canonical junction mRNA, qPCR panel; read-out: MYB CJ (decrease in CJ mRNA levels, IC50)
pIC50: −log10 of the molar value.

Would you please look over these solved cases?
Query: I would be grateful if you could share the reported pIC50 for "C[C@H]1CN(c2cnc3nc(-c4cc(F)c5nn(C)cc5c4)cc(Cl)c3c2)CC2(CC2)N1" .
Result: 6.00 to 7.00

Query: I would be grateful if you could share the reported pIC50 for "Cc1cc(-c2cc3cn(C)nc3c(C)c2O)nc2ncc(N3CCNCC3)cc12" .
Result: > 7.00

---
Query: I would be grateful if you could share the reported pIC50 for Cc1c(O)c(-c2cc(C3CC3)c3cc(N4CCNCC4)cnc3n2)cc2cn(C)nc12 [Compound 144, bis(2,2,2-trifluoroacetate)] .
Result: 6.00 to 7.00

Query: I would be grateful if you could share the reported pIC50 for "Cc1cn2cc(-c3cc(Cl)c4cc(N5CCNCC5)cnc4n3)cc(F)c2n1" .
Result: 6.00 to 7.00

Query: I would be grateful if you could share the reported pIC50 for "C[C@@H]1CN(c2cnc3nc(-c4cc(F)c5nn(C)cc5c4)cc(Cl)c3c2)C[C@H](C)N1" .
Result: 6.00 to 7.00

Query: I would be grateful if you could share the reported pIC50 for "C[C@H]1CN(c2cnc3nc(-c4cc(F)c5nn(C)cc5c4)cc(Cl)c3c2)C[C@H](C)N1" .
Result: > 7.00

Query: I would be grateful if you could share the reported pIC50 for "CN[C@H]1CCN(c2cnc3nc(-c4cc(C)c5nc(C)cn5n4)cc(Cl)c3c2)C1" .
Result: > 7.00

Query: I would be grateful if you could share the reported pIC50 for CNC1CCN(c2cnc3nc(-c4cc5cn(C)nc5c(C)c4O)cc(OC)c3n2)C1 (stereo not drawn) .
Result: 5.00 to 6.00

Query: I would be grateful if you could share the reported pIC50 for "C[C@H]1CN(c2cnc3nc(-c4cc5cn(C)nc5cc4O)cc(Cl)c3c2)C[C@H](C)N1C" .
Result: 6.00 to 7.00

Query: I would be grateful if you could share the reported pIC50 for "Cn1cc2cc(-c3ccc4cc(NC5CCNCC5)cnc4n3)c(O)c(F)c2n1" .
Result: 6.00 to 7.00

Query: I would be grateful if you could share the reported pIC50 for "Cc1cn2cc(-c3cc(Cl)c4cc(N5C[C@H](C)N[C@@H](C)C5)cnc4n3)cc(F)c2n1" .
Result: > 7.00

Query: I would be grateful if you could share the reported pIC50 for "Cn1cc2cc(-c3ccc4cc(N5CC[C@@H](NC(C)(C)C)C5)cnc4n3)c(O)cc2n1" .
Result: 5.00 to 6.00
